System: 653999-131-R-J2-PDC complex spheroids, growth % test/control
Assay: Anticancer human tumor 653999-131-R-J2-PDC patient-derived lung adenocarcinoma cell line growth inhibition [AhR]
Details: second compound 0.1 µM; first compound 1 µM; stronger effect = lower value
Text: Multicellular complex tumor spheroid response to aryl hydrocarbon receptor antagonists in combination with a variety of drugs and investigational agents in selected tumor cell lines […] Compounds. […] If the clinical Cmax for an agent had not been determined, the highest concentration tested was 10 microM (Table 1). […]
viability, T/C for assorted compounds

| Compound | System name | viability, T/C / % |
| --- | --- | --- |
| COc1cccc2c1C(=O)c1c(O)c3c(c(O)c1C2=O)CC(O)(C(=O)CO)CC3OC1CC(N)C(O)C(C)O1 (stereo not given) + CC(CO)NC(=O)c1cc(-c2ccc(Cl)cc2)nn(-c2cnn(C)c2)c1=O | 653999-131-R-J2-PDC complex spheroids, growth % test/control | 11.7 |
| Nc1ncn(C2CC(O)C(CO)O2)c(=O)n1 (stereo not given) + CC(CO)NC(=O)c1cc(-c2ccc(Cl)cc2)nn(-c2cnn(C)c2)c1=O | 653999-131-R-J2-PDC complex spheroids, growth % test/control | 79.9 |
| O=C(C=Cc1cccc(S(=O)(=O)Nc2ccccc2)c1)NO + CC(CO)NC(=O)c1cc(-c2ccc(Cl)cc2)nn(-c2cnn(C)c2)c1=O | 653999-131-R-J2-PDC complex spheroids, growth % test/control | 91.8 |
| NS(=O)(=O)OCC1CC(n2ccc3c(NC4CCc5ccccc54)ncnc32)CC1O (stereo not given) + Cc1ccccc1N=Nc1ccc(NC(=O)c2ccnn2C)c(C)c1 | 653999-131-R-J2-PDC complex spheroids, growth % test/control | 124 |
| CC1COCCN1c1cc(C2(S(C)(=N)=O)CC2)nc(-c2ccnc3[nH]ccc23)n1 (stereo not given) + Cc1cncc(-c2nc(NCCc3c[nH]c4ccccc34)c3ncn(C(C)C)c3n2)c1 | 653999-131-R-J2-PDC complex spheroids, growth % test/control | 104 |
| Nc1ncn(C2CC(O)C(CO)O2)c(=O)n1 (stereo not given) + Cc1ccccc1N=Nc1ccc(NC(=O)c2ccnn2C)c(C)c1 | 653999-131-R-J2-PDC complex spheroids, growth % test/control | 76.9 |
| CC(C)c1c(-c2ccccc2)nc2c(C#N)c[nH]n2c1=O + Cc1ccccc1N=Nc1ccc(NC(=O)c2ccnn2C)c(C)c1 | 653999-131-R-J2-PDC complex spheroids, growth % test/control | 95.6 |
| COc1cc(C2c3cc4c(cc3C(OC3OC5COC(C)OC5C(O)C3O)C3COC(=O)C23)OCO4)cc(OC)c1O (stereo not given) + CC(CO)NC(=O)c1cc(-c2ccc(Cl)cc2)nn(-c2cnn(C)c2)c1=O | 653999-131-R-J2-PDC complex spheroids, growth % test/control | 51.9 |
| CC1COCCN1c1cc(-c2ccnn2C)c2ccnc(-c3ccn[nH]3)c2n1 (stereo not given) + Cc1ccccc1N=Nc1ccc(NC(=O)c2ccnn2C)c(C)c1 | 653999-131-R-J2-PDC complex spheroids, growth % test/control | 34.5 |
| CC(C)c1c(-c2ccccc2)nc2c(C#N)c[nH]n2c1=O + CC(CO)NC(=O)c1cc(-c2ccc(Cl)cc2)nn(-c2cnn(C)c2)c1=O | 653999-131-R-J2-PDC complex spheroids, growth % test/control | 94.2 |

----------
IC50 for assorted compounds
Tested on: 653999-131-R-J2-PDC complex spheroids, growth % test/control
Assay: Anticancer human tumor 653999-131-R-J2-PDC cell line growth inhibition [AhR];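 further: spheroids exposed to agents for seven days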
Conditions: curve of first compound; second compound 10 µM
Measured attribute: IC50

| Compound | System name | Value observed |
| --- | --- | --- |
| COc1cc(Nc2ncc3c(n2)-c2ccc(Cl)cc2C(c2c(F)cccc2OC)=NC3)ccc1C(=O)O + Cc1ccccc1N=Nc1ccc(NC(=O)c2ccnn2C)c(C)c1 | 653999-131-R-J2-PDC complex spheroids, growth % test/control | > 10 µM |
| Cn1ncnc1C1c2n[nH]c(=O)c3cc(F)cc(c23)NC1c1ccc(F)cc1 (stereo not drawn) + Cc1cncc(-c2nc(NCCc3c[nH]c4ccccc34)c3ncn(C(C)C)c3n2)c1 | 653999-131-R-J2-PDC complex spheroids, growth % test/control | > 0.1 µM |
| CC(C)c1c(-c2ccccc2)nc2c(C#N)c[nH]n2c1=O + CC(CO)NC(=O)c1cc(-c2ccc(Cl)cc2)nn(-c2cnn(C)c2)c1=O | 653999-131-R-J2-PDC complex spheroids, growth % test/control | > 10 µM |
| CC(C)c1c(-c2ccccc2)nc2c(C#N)c[nH]n2c1=O + Cc1ccccc1N=Nc1ccc(NC(=O)c2ccnn2C)c(C)c1 | 653999-131-R-J2-PDC complex spheroids, growth % test/control | > 10 µM |
| O=C(C=Cn1cnc(-c2cc(C(F)(F)F)cc(C(F)(F)F)c2)n1)NNc1cnccn1 + Cc1ccccc1N=Nc1ccc(NC(=O)c2ccnn2C)c(C)c1 | 653999-131-R-J2-PDC complex spheroids, growth % test/control | > 3 µM |
| COc1cccc2c1C(=O)c1c(O)c3c(c(O)c1C2=O)CC(O)(C(=O)CO)CC3OC1CC(N)C(O)C(C)O1 (stereo not drawn) + Cc1cncc(-c2nc(NCCc3c[nH]c4ccccc34)c3ncn(C(C)C)c3n2)c1 | 653999-131-R-J2-PDC complex spheroids, growth % test/control | < 0.0316 µM |
| Cn1ncnc1C1c2n[nH]c(=O)c3cc(F)cc(c23)NC1c1ccc(F)cc1 (stereo not drawn) + CC(CO)NC(=O)c1cc(-c2ccc(Cl)cc2)nn(-c2cnn(C)c2)c1=O | 653999-131-R-J2-PDC complex spheroids, growth % test/control | > 0.1 µM |
| Cn1ncnc1C1c2n[nH]c(=O)c3cc(F)cc(c23)NC1c1ccc(F)cc1 (stereo not drawn) + Cc1ccccc1N=Nc1ccc(NC(=O)c2ccnn2C)c(C)c1 | 653999-131-R-J2-PDC complex spheroids, growth % test/control | > 0.1 µM |
| CCN(c1cc(-c2ccc(CN3CCOCC3)cc2)cc(C(=O)NCc2c(C)cc(C)[nH]c2=O)c1C)C1CCOCC1 + Cc1ccccc1N=Nc1ccc(NC(=O)c2ccnn2C)c(C)c1 | 653999-131-R-J2-PDC complex spheroids, growth % test/control | > 3 µM |
| COc1cc(Nc2ncc3c(n2)-c2ccc(Cl)cc2C(c2c(F)cccc2OC)=NC3)ccc1C(=O)O + CC(CO)NC(=O)c1cc(-c2ccc(Cl)cc2)nn(-c2cnn(C)c2)c1=O | 653999-131-R-J2-PDC complex spheroids, growth % test/control | > 10 µM |
| CCN(c1cc(-c2ccc(CN3CCOCC3)cc2)cc(C(=O)NCc2c(C)cc(C)[nH]c2=O)c1C)C1CCOCC1 + CC(CO)NC(=O)c1cc(-c2ccc(Cl)cc2)nn(-c2cnn(C)c2)c1=O | 653999-131-R-J2-PDC complex spheroids, growth % test/control | > 3 µM |
| CC1COCCN1c1cc(-c2ccnn2C)c2ccnc(-c3ccn[nH]3)c2n1 (stereo not drawn) + Cc1cncc(-c2nc(NCCc3c[nH]c4ccccc34)c3ncn(C(C)C)c3n2)c1 | 653999-131-R-J2-PDC complex spheroids, growth % test/control | < 0.00316 µM |
| CC1(C)CCC(CN2CCN(c3ccc(C(=O)NS(=O)(=O)c4ccc(NCC5CCOCC5)c([N+](=O)[O-])c4)c(Oc4cnc5[nH]ccc5c4)c3)CC2)=C(c2ccc(Cl)cc2)C1 + Cc1cncc(-c2nc(NCCc3c[nH]c4ccccc34)c3ncn(C(C)C)c3n2)c1 | 653999-131-R-J2-PDC complex spheroids, growth % test/control | > 10 µM |

----------
System: 653999-131-R-J2-PDC complex spheroids, growth % test/control
Test: Anticancer human tumor 653999-131-R-J2-PDC cell line growth inhibition [AhR];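 further: spheroids exposed to agents for seven days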;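 on viability, T/C: 100% = DMSO vehicle control viability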
Details: second compound 0.1 µM; first compound 10 µM; stronger effect = lower value
Measured attribute: viability, T/C (%)

| Molecule | Unit text | Value observed |
| --- | --- | --- |
| O=C(c1cc(Cc2n[nH]c(=O)c3ccccc23)ccc1F)N1CCN(C(=O)C2CC2)CC1 + CC(CO)NC(=O)c1cc(-c2ccc(Cl)cc2)nn(-c2cnn(C)c2)c1=O | % | 76.9 |
| Nc1ccn(C2OC(CO)C(O)C2(F)F)c(=O)n1 (stereo not given) + Cc1cncc(-c2nc(NCCc3c[nH]c4ccccc34)c3ncn(C(C)C)c3n2)c1 | % | 33.4 |
| Nc1ccccc1NC(=O)c1ccc(CNC(=O)OCc2cccnc2)cc1 + CC(CO)NC(=O)c1cc(-c2ccc(Cl)cc2)nn(-c2cnn(C)c2)c1=O | % | 13 |
| CC1COCCN1c1cc(C2(S(C)(=N)=O)CC2)nc(-c2ccnc3[nH]ccc23)n1 (stereo not given) + Cc1ccccc1N=Nc1ccc(NC(=O)c2ccnn2C)c(C)c1 | % | 47.3 |
| CC1(C)CCC(CN2CCN(c3ccc(C(=O)NS(=O)(=O)c4ccc(NCC5CCOCC5)c([N+](=O)[O-])c4)c(Oc4cnc5[nH]ccc5c4)c3)CC2)=C(c2ccc(Cl)cc2)C1 + CC(CO)NC(=O)c1cc(-c2ccc(Cl)cc2)nn(-c2cnn(C)c2)c1=O | % | 71.2 |
